target: FL-CHK1 (Homo sapiens, UniProt O14757); construct: C-terminally His-tagged full-length human CHK1 (FL-CHK1); 6xHis (C); made in house; host or cells: baculovirus/insect cells; test: CHK1 assay; assay type: biochemical; conditions: 20 μM; combinatorial library compounds
Sequence (O14757 whole entry): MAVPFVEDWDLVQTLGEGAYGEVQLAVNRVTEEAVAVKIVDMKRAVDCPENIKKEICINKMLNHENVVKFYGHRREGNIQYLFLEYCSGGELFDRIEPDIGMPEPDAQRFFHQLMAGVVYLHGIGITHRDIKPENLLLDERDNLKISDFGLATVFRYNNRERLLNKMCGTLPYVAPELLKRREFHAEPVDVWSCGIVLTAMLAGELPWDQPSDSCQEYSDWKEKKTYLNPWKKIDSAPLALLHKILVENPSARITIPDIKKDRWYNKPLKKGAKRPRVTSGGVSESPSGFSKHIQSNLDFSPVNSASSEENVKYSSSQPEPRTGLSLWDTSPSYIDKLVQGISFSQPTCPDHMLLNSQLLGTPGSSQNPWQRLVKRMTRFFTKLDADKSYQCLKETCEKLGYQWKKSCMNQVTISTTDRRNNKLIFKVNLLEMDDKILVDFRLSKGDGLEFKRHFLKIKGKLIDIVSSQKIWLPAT
measured.quantity: inhibition at 20 µM (%)

| compound | experimental.result |
| --- | --- |
| CN(C)c1ccc(Nc2nc(N)c(-c3nc(-c4ccc(-c5ccc(Cl)cc5Cl)o4)cs3)s2)cc1 | -7.6 |
| Nc1nc(Nc2ccc(S(N)(=O)=O)cc2)sc1-c1nc(-c2ccc(C(F)(F)F)cc2)cs1 | 4.2 |
| CN(C)c1ccc(Nc2nc(N)c(-c3nc(-c4ccccc4OC(=O)c4ccccc4)cs3)s2)cc1 | 9.8 |
| CN(C)c1ccc(Nc2nc(N)c(-c3nc(-c4ccccc4)cs3)s2)cc1 [drawing 547] | 13.1 |
| CN(C)c1ccc(Nc2nc(N)c(-c3nc(-c4ccc5c(c4)OCCO5)cs3)s2)cc1 | 40.8 |
| CC(C)c1ccc(Nc2nc(N)c(-c3nc(-c4ccc(F)cc4F)cs3)s2)cc1 | 19.7 |

a. CC(C)(C)c1cc(-c2csc(-c3sc(Nc4ccc(S(N)(=O)=O)cc4)nc3N)n2)cc(C(C)(C)C)c1O
b. CN(C)c1ccc(Nc2nc(N)c(-c3nc(-c4cc(-c5ccc(Cl)c(Cl)c5)no4)cs3)s2)cc1
c. CCCCCc1ccc(-c2csc(-c3sc(Nc4ccc(S(N)(=O)=O)cc4)nc3N)n2)cc1
Write the entries in order, lowest recorded inhibition at 20 µM first. The labels, placed in the requested order, form the answer. b, c, a

----------
molecular target: CDK2/Cyclin A complex (Homo sapiens, UniProt P24941); test: CDK2/Cyclin A assay; type: biochemical; details: 1.0 μM; combinatorial library compounds
measured.quantity: inhibition at 1 µM (%)

Look over these answered cases.
| compound | inhibition at 1 µM / % |
| --- | --- |
| CN(C)c1ccc(Nc2nc(N)c(-c3nc(-c4cc(C(=O)C(Cl)(Cl)Cl)n(C)c4)cs3)s2)cc1 | 36.7 |
| CN(C)c1ccc(Nc2nc(N)c(-c3nc(-c4ccc5c(c4)CCC(=O)N5)cs3)s2)cc1 | -2.5 |
| CN(C)c1ccc(Nc2nc(N)c(-c3nc(-c4c(Cl)c(Cl)nc(Cl)c4Cl)cs3)s2)cc1 | 33.3 |
| COc1ccc(-c2csc(-c3sc(Nc4ccc(C(C)C)cc4)nc3N)n2)c(OC)c1 | -22.6 |

a. CN(C)c1ccc(Nc2nc(N)c(-c3nc(-c4ccccc4OC(=O)c4ccccc4)cs3)s2)cc1
b. CCc1cc2c(cc1-c1csc(-c3sc(Nc4ccc(C(C)C)cc4)nc3N)n1)C(C)(C)CCC2(C)C
I'm curious whether a or b has the smaller inhibition at 1 µM number. Which is it? Give the chosen item's label as your response. b

----------
molecular target: LCK tyrosine kinase (Homo sapiens, UniProt P06239, C224D/P223M); construct: starting from amino acid residue 223 to the end of the protein at residue 509; made in house; host or cells: insect cells; test: LCK spectrophotometric assay; format: biochemical; settings: Table 3, read-out: LCK (% inh @ 1 uM)
Sequence (P06239 223-509 P223M/C224D): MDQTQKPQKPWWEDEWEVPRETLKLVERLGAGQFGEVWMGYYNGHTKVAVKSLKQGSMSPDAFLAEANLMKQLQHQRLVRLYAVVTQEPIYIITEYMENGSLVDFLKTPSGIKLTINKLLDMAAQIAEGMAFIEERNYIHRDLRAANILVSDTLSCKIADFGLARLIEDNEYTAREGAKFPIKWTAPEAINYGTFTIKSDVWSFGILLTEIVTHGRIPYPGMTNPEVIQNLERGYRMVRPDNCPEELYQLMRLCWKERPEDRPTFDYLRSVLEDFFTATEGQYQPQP
measured.quantity: inhibition at 1 µM (%)

A. COc1cc(Nc2nc(N)c(-c3nc(-c4cccc(NC(=O)c5ncoc5-c5ccccc5)c4)cs3)s2)cc(OC)c1OC
B. COc1cc(Nc2nc(N)c(-c3nc(-c4cc(NC(=O)OC(C)(C)C)c(F)cc4Cl)no3)s2)cc(OC)c1OC
C. COc1cccc(C(=O)Nc2ccc(C)c(-c3noc(-c4sc(Nc5ccc(N6CCOCC6)nc5)nc4N)n3)c2)c1
D. COCC(C)NC(=O)Nc1nc(N)c(-c2nc(-c3cc(NC(=O)c4cccc(OC)c4)c(F)cc3F)cs2)s1 (stereo not shown)
Sort key: inhibition at 1 µM. Order: high to low. Scope: items listed above. The labels, placed in the requested order, form the answer. C, B, A, D

----------
Molecular target: FGF-R1 (Homo sapiens, UniProt P11362, C488A/C584S/L457V)
Construct: starting from the endogenous methionine residue 456 to glutamate 766; made in house; host or cells: baculovirus vector expression system
Sequence (P11362 456-766 L457V/C488A/C584S): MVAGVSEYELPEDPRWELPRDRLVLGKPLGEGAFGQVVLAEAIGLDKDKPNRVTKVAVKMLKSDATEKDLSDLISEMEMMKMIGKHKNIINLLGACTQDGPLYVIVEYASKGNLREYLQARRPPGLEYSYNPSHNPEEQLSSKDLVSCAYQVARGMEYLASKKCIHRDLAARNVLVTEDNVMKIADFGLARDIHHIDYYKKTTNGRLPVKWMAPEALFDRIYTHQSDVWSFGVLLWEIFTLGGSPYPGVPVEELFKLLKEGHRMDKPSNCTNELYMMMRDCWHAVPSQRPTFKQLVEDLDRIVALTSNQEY
Experiment: FGF-R spectrophotometric assay
Assay type: biochemical
Details: Table 2; at 5 (head μM)
Text: FGF-R1 Construct for Assay: The intracellular kinase domain of human FGF-R1 was expressed using the baculovirus vector expression system starting from the endogenous methionine residue 456 to glutamate 766, according to the residue numbering system of Mohammadi et al., Mol. Cell. Biol., 16, 977-989 (1996). In addition, the construct also has the following 3 amino acid substitutions: L457V, C488A, and C584S. […]
measured.quantity: FGF-R % inhibition @ 5 (% @)

| compound | result.units | FGF-R % inhibition @ 5 |
| --- | --- | --- |
| COc1cc(Nc2nc(N)c(-c3nc(-c4cc(O)ccc4Br)cs3)s2)cc(OC)c1OC [A(26)] | % @ | 52 |
| COc1cc(Nc2nc(N)c(-c3nc(-c4cc(O)cc(O)c4)cs3)s2)cc(OC)c1OC [A(18)] | % @ | 38 |
| COc1cc(Nc2nc(N)c(-c3nc(-c4ccc(O)cc4)cs3)s2)cc(OC)c1OC [A(10)] | % @ | 45 |
| COc1cc(Nc2nc(N)c(-c3nc(-c4ccccc4O)cs3)s2)cc(OC)c1OC [A(23)] | % @ | 47 |

----------
target: phosphorylated VEGF-R2Δ50 (FLVK-P) (Homo sapiens, UniProt P35968, DEL940-989/E990V); construct: VEGF-R2Δ50 contains residues 806-939 and 990-1171; made in house; host or cells: baculovirus/insect cells; assay: VEGF-R2 coupled spectrophotometric (FLVK-P) assay; format: biochemical; settings: Table 1; spectrophotometric assay
Sequence (P35968 with tags, fused parts or gaps DEL940-989/E990V limits assumed): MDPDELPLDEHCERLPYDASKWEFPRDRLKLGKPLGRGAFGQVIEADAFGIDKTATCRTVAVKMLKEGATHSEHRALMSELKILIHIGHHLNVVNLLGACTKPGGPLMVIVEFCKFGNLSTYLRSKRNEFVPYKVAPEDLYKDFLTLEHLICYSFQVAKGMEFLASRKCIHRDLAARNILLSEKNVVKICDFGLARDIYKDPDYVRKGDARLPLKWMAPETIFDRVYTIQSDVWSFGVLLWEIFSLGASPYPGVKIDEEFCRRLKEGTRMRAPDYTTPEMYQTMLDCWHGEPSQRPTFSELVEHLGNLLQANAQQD
measured.quantity: Ki (nM)

| compound | Ki [nM] |
| --- | --- |
| COc1cc(Nc2nc(N)c(-c3nc(-c4cccc(NC(=O)CCc5ccccc5)c4)cs3)s2)cc(OC)c1OC [D(16)] | 11.8 |
| COc1cccc(C(=O)Nc2cccc(-c3noc(-c4sc(Nc5cc(OC)c(OC)c(OC)c5)nc4N)n3)c2)c1 [D(48)] | 4.1 |

I. COc1cc(Nc2nc(N)c(-c3nc(-c4cccc(NC(=O)c5cccc(C(F)(F)F)c5)c4)no3)s2)cc(OC)c1OC [D(49)]
II. COc1cc(Nc2nc(N)c(-c3nc(-c4cccc(NC(=O)c5ccccc5)c4)no3)s2)cc(OC)c1OC [D(46)]
III. CNC(=O)Nc1nc(N)c(-c2nc(-c3cccc(NC(=O)c4ccc(Cl)s4)c3)cs2)s1 [F(1)]
Write the entries in order, lowest recorded Ki first. The labels, placed in the requested order, form the answer. III, I, II
(III: 0.91 nM, I: 1.6 nM, II: 17.1 nM)

----------
target: CDK4/Cyclin D3 complex (Homo sapiens, UniProt P11802); construct: made in house; host or cells: insect cells co-infected with baculovirus vectors; test: CDK4/Cyclin D assay; type: biochemical; details: 1.0 μM; combinatorial library compounds
Sequence (P11802 whole entry): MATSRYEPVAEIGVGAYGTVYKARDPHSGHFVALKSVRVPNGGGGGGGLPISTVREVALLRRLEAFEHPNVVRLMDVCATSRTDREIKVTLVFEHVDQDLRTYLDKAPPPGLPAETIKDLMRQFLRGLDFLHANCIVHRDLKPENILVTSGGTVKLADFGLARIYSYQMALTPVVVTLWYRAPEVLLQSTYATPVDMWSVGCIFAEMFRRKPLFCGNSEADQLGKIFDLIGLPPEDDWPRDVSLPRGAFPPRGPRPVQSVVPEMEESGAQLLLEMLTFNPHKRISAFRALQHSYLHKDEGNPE
Sequence (P30281 whole entry partner): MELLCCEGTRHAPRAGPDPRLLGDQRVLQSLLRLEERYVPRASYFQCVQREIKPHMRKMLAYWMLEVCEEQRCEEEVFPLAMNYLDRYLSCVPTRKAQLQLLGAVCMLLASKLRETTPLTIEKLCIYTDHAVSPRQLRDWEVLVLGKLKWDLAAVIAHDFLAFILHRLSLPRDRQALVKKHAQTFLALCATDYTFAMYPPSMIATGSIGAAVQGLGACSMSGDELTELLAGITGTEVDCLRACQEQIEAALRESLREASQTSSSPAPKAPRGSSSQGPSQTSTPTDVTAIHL
measured.quantity: inhibition at 1 µM (%)

Look over these answered cases.
| input.smiles | inhibition at 1 µM / % |
| --- | --- |
| Nc1nc(Nc2ccc(S(N)(=O)=O)cc2)sc1-c1nc(-c2cccc(Br)c2)cs1 | -0.3 |
| COc1cccc(-c2csc(-c3sc(Nc4ccc(C(C)C)cc4)nc3N)n2)c1 | 49.3 |
| CC(C)c1ccc(Nc2nc(N)c(-c3nc(-c4cc(C(C)(C)C)c(O)c(C(C)(C)C)c4)cs3)s2)cc1 | 46.8 |
| COc1cccc(-c2csc(-c3sc(Nc4ccc(S(N)(=O)=O)cc4)nc3N)n2)c1 | -4.2 |
| Cc1c(F)cc(-c2csc(-c3sc(Nc4ccc(C(C)C)cc4)nc3N)n2)cc1Cl | 88.6 |
| CN(C)c1ccc(Nc2nc(N)c(-c3nc(-c4c(Cl)cc(C(F)(F)F)cc4Cl)cs3)s2)cc1 | 82.6 |

1. CCOC(=O)c1cc(-c2csc(-c3sc(Nc4ccc(S(N)(=O)=O)cc4)nc3N)n2)on1
2. CC(C)c1ccc(Nc2nc(N)c(-c3nc(-c4ccc(C(F)(F)F)cc4)cs3)s2)cc1
I'm curious whether 1 or 2 has the smaller inhibition at 1 µM number. Which is it? Give the chosen item's label as your response. 1

a. CC(C)c1ccc(Nc2nc(N)c(-c3nc(-c4ccc(O)c(O)c4)cs3)s2)cc1
b. CC(C)(C)c1cc(-c2csc(-c3sc(Nc4ccc(S(N)(=O)=O)cc4)nc3N)n2)cc(C(C)(C)C)c1O
Could you point out whether the larger inhibition at 1 µM belongs to a or to b ? Give the chosen item's label as your response. a
